// provenance: ChEMBL document CHEMBL4265882

organism: Homo sapiens; test: Selectivity index, ratio of IC50 for human U937 cells-derived PDE4D to IC50 for human U937 cells-derived PDE4B
parameter-measured: Ratio IC50

Record excerpt, results attached:
COc1ccc(-c2ccc(C(=O)N3CCc4ccccc4C3)o2)cc1 :: 3.92
O=C(c1ccc(-c2ccc([N+](=O)[O-])cc2)o1)N1CCCc2ccccc21 :: 6.38
O=C(c1ccc(-c2ccc(F)cc2F)o1)N1CCc2ccccc2C1 :: 6.03
O=C(c1ccc(-c2c(F)cccc2F)o1)N1CCCc2ccccc21 :: 5.34
O=C(c1ccc(-c2ccc(F)cc2F)o1)N1CCCc2ccccc21 :: 6
Cc1ccc(-c2ccc(C(=O)N3CCCc4ccccc43)o2)cc1 :: 5.33
O=C(c1ccc(-c2ccc([N+](=O)[O-])cc2)o1)N1CCc2ccccc2C1 :: 5.39
O=C(c1ccc(-c2ccc(F)cc2)o1)N1CCc2ccccc2C1 :: 6.66

a. O=C(c1ccc(-c2c(F)cccc2F)o1)N1CCc2ccccc2C1
b. O=C(c1ccc(-c2ccc(F)cc2)o1)N1CCCc2ccccc21
Parameter metric = Ratio IC50. Return the lower-valued option from a and b . State the label of the item chosen.
a
(a: 4.21, b: 6.6)

###

The following are reported IC50 results, target or system UniProt Q08499.
Sequence (Q08499 whole entry): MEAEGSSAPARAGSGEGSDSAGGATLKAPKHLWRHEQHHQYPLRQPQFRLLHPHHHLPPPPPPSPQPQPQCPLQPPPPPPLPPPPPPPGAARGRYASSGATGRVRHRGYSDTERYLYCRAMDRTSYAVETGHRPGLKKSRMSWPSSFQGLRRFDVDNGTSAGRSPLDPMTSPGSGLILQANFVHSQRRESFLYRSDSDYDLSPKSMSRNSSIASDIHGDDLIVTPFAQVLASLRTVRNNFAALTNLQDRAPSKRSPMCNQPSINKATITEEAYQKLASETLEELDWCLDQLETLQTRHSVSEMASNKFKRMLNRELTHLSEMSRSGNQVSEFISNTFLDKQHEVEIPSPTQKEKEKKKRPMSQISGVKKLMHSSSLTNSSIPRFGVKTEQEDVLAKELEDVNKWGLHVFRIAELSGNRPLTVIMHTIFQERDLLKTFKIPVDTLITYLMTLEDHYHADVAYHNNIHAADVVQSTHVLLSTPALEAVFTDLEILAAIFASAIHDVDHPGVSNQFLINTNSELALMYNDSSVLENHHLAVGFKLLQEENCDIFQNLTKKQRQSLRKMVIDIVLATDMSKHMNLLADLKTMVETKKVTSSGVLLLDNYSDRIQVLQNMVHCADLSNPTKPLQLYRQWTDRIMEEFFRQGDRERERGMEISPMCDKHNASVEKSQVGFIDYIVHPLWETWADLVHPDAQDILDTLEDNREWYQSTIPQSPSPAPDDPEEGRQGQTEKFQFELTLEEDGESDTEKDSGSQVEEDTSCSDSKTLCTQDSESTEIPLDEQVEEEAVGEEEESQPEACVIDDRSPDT
parameter-measured: IC50 (µM)

Record excerpt, results attached:
COc1ccc(-c2ccc(C(=O)N3CCCc4ccccc43)o2)cc1 :: 10.3
O=C(c1ccc(-c2ccc(F)cc2)o1)N1CCc2ccccc2C1 :: 49.3
O=C(c1ccc(-c2ccc([N+](=O)[O-])cc2)o1)N1CCc2ccccc2C1 :: 88.3
O=C(c1ccc(-c2ccc(Cl)cc2)o1)N1CCc2ccccc2C1 :: 25.2
O=C(c1ccc(-c2c(F)cccc2F)o1)N1CCCc2ccccc21 :: 81.3

I. Cc1ccc(-c2ccc(C(=O)N3CCCc4ccccc43)o2)cc1
II. O=C(c1ccc(-c2c(F)cccc2F)o1)N1CCc2ccccc2C1
Which item exceeds the other in IC50, I or II ? State the label of the item chosen.
II
(II: 89.2 µM, I: 50.1 µM)

###

target: 3',5'-cyclic-AMP phosphodiesterase 4B (Homo sapiens, UniProt Q07343)
Sequence (Q07343 whole entry): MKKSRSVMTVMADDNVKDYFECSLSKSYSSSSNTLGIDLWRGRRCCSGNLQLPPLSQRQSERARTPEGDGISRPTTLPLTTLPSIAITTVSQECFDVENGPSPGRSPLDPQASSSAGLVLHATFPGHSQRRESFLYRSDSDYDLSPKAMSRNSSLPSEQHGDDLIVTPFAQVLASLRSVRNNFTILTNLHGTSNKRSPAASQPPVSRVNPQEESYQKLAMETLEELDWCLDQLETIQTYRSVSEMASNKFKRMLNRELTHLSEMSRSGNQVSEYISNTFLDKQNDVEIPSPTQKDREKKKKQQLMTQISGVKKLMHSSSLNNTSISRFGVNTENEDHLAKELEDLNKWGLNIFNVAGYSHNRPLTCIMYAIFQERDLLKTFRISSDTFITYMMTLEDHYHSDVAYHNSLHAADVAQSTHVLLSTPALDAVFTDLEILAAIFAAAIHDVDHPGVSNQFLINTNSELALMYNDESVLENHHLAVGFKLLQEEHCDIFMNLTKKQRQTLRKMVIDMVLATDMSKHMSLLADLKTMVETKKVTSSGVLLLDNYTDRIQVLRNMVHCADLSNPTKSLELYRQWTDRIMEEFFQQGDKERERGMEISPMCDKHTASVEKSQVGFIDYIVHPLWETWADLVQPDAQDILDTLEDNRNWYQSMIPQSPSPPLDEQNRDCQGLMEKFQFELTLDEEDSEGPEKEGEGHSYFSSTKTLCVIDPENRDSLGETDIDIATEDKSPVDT
parameter-measured: IC50 (µM)

P. O=C(c1ccc(-c2ccc(Br)cc2)o1)N1CCCc2ccccc21
Q. O=C(c1ccc(-c2c(F)cccc2F)o1)N1CCc2ccccc2C1
R. O=C(c1ccc(-c2ccc(F)cc2)o1)N1CCc2ccccc2C1
S. O=C(c1ccc(-c2cccc(F)c2)o1)N1CCc2ccccc2C1
Could you list the above molecules by IC50, going from the biggest number down? # answer = labels listed in requested order
P, S, Q, R
(P: 46.8 µM, S: 25.7 µM, Q: 17.1 µM, R: 7.4 µM)

###

species: Homo sapiens; test: Selectivity index, ratio of IC50 for human U937 cells-derived PDE4D to IC50 for human U937 cells-derived PDE4B
parameter-measured: Ratio IC50

O=C(c1ccc(-c2ccc(Cl)cc2)o1)N1CCCc2ccccc21 :: 6.09
COc1ccc(-c2ccc(C(=O)N3CCCc4ccccc43)o2)cc1 :: 6.86
Cc1ccc(-c2ccc(C(=O)N3CCc4ccccc4C3)o2)cc1 :: 6.04
O=C(c1ccc(-c2ccc(Cl)cc2)o1)N1CCc2ccccc2C1 :: 6.14
O=C(c1ccc(-c2cccc(Cl)c2)o1)N1CCCc2ccccc21 :: 5.12

###

The following are reported pIC50 results, target or system UniProt Q07343.
pIC50: −log10 of the molar value.
parameter-measured: pIC50

Record excerpt, results attached:
O=C(c1ccc(-c2ccccc2Cl)o1)N1CCCc2ccccc21 :: 4.38
O=C(c1ccc(-c2ccc([N+](=O)[O-])cc2)o1)N1CCc2ccccc2C1 :: 4.80
O=C(c1ccc(-c2ccc(Cl)cc2)o1)N1CCCc2ccccc21 :: 5.46

I. O=C(c1ccc(-c2ccccc2Cl)o1)N1CCc2ccccc2C1
II. O=C(c1ccc(-c2ccc(F)cc2F)o1)N1CCCc2ccccc21
Parameter metric = pIC50. Return the lower-valued option from I and II . State the label of the item chosen.
I

###

target: 3',5'-cyclic-AMP phosphodiesterase 4B (Homo sapiens, UniProt Q07343); experiment: Inhibition of human U937 cells-derived PDE4B using [3H]-cAMP as substrate after 30 mins
pIC50: −log10 of the molar value.
parameter-measured: pIC50

A. O=C(c1ccc(-c2ccc(F)cc2F)o1)N1CCc2ccccc2C1
B. O=C(c1ccc(-c2ccc(Br)cc2)o1)N1CCc2ccccc2C1
C. Cc1ccc(-c2ccc(C(=O)N3CCCc4ccccc43)o2)cc1
Would you mind ranking these molecules by ascending pIC50? # answer = labels listed in requested order
B, C, A
